Target: UniProt:O00482
Sequence (O00482 whole entry, looked up): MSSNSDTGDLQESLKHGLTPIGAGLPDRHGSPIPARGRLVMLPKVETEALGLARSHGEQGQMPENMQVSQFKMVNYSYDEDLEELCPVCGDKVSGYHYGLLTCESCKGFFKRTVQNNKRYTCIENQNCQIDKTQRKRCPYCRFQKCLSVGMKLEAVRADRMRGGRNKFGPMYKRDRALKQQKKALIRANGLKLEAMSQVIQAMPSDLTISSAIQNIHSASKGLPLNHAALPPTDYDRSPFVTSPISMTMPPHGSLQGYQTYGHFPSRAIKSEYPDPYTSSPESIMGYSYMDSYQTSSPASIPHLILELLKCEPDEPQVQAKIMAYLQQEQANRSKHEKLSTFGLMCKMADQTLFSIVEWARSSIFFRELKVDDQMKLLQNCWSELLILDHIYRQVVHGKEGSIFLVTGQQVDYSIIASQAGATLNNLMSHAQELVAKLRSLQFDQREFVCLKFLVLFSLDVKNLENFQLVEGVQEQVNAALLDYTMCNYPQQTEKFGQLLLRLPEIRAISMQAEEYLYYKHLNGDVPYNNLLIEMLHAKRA
Experiment: concentration-dependent NR5A2 reporter suppression – cell-based, luminescence, late stage, dose response (AID 651976)
Settings: cell-based LRH-1 luciferase reporter, inverse agonist
The source made the active and inactive calls. How the calls were made is not given here.
Labels: true (1) = active, false (0) = inactive

CCCc1cc(=O)oc2c(C)c(OCC(=O)NCCN3CCOCC3)ccc12 ... false (0)
CCCN(CC(=O)Nc1ccc(C(C)=O)cc1)CC(=O)Nc1ccccc1C ... false (0)
O=C(Nc1ccccc1)c1oc2ccccc2c1NC(=O)C1CC1 ... true (1)
O=C(CSc1nc(=O)n2cc(Cl)ccc2n1)Nc1ccc2c(c1)OCCO2 ... false (0)
Cc1ccc(NC(=O)COC(=O)C(NS(=O)(=O)c2ccc(Cl)cc2)C(C)O)c(Br)c1 (stereo not given) ... false (0)
Cc1cc(=O)oc2c(C)c(OCC(=O)NC3CC(C)(C)NC(C)(C)C3)ccc12 ... false (0)
CC(C)CC1(C)NC(=O)N(CC(=O)Nc2ccc3c(c2)OCCO3)C1=O (stereo not given) ... false (0)
COCC(=O)NC1CCN(CC(=O)Nc2ccc(OC)cc2[N+](=O)[O-])CC1 ... false (0)
CCCc1cc(=O)oc2c(C)c(OCC(=O)NCCCn3ccnc3)ccc12 ... false (0)
Cc1ccc(NC(=O)CSc2sc3c(O)cc(=O)[nH]c3c2C#N)c(F)c1 ... false (0)
